Value source: patent US20190233493A1

Provide the reported EC50 (nM), OVCAR 5 cells (cAMP) of each item.
system_under_test: T1, RXFP1 receptor (UniProt Q9HBX9 1-757, limits assumed)
T1 sequence (looked up): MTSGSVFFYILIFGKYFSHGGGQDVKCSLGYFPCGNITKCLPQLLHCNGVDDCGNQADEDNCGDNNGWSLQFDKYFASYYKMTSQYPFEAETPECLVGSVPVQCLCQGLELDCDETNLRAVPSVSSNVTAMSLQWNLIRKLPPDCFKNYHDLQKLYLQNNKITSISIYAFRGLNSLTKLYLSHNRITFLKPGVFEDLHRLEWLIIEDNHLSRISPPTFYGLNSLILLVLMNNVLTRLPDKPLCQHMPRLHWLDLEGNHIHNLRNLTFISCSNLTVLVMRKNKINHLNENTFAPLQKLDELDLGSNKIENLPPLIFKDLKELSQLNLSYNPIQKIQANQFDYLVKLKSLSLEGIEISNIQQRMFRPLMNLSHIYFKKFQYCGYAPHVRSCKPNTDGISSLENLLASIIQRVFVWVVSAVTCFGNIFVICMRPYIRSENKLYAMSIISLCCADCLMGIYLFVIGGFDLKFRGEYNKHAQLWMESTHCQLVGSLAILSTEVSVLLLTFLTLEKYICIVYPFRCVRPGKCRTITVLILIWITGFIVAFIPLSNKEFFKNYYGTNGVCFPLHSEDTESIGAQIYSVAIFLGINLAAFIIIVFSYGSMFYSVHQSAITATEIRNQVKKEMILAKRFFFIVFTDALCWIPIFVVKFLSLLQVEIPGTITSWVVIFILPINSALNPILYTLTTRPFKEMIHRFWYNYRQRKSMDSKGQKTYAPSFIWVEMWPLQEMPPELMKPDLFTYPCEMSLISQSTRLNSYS
assay_details: cell-based or functional assay
*1 amine or outer side, *2 acyl side, *3 side chain or, on linkers, in order; H or OH if unused. Primed or numbered codes have the meaning given here. Side-chain parts run from the residue outwards. [ ]: non-standard residue; d: D form. The star is where a group is joined. PEG4′ = 2-[2-[2-[2-[2-aminoethoxy]ethoxy]ethoxy]ethoxy]propanoyl; PEG24′ = polyethylene glycol spacer of 24 ethoxy units; PEG12 = NCCOCCOCCOCCOCCOCCOCCOCCOCCOCCOCCOCCOCCC(=O)O; γGlu = O=C(O)[C@H](CCC(=O)[*:2])N[*:1]; 1Nal = N[C@@H](Cc1cccc2ccccc12)C(=O)O; Stearoyl = CCCCCCCCCCCCCCCCCC(=O)*; Palmitoyl = CCCCCCCCCCCCCCCC(=O)*; Myristoyl = CCCCCCCCCCCCCC(=O)*; αMeK = C[C@](N)(CCCCN)C(=O)O; Nle = CCCC[C@H](N)C(=O)O; PEG2′ = PEG2 spacer unit; PEG2″ = not defined here; Aib = CC(C)(N)C(=O)O
One number for each entry, in nM.

Worked cases, EC50 (nM), OVCAR 5 cells (cAMP) given:
binder	EC50 (nM), OVCAR 5 cells (cAMP)
Ac-LEGREKVRAK(Ac)I[Aib][Aib]EG[Nle]ST[1Nal]S[Aib]RK(Ac)LK([PEG2′-PEG2′-PEG2′-γGlu-γGlu-γGlu-Stearoyl])-NH2 [peptide of SEQ ID NO: 87]	1.63
Ac-LEGREKVRAQI[Aib][Aib]EGMSTWS[Aib]RK[PEG24′]K([γGlu-γGlu-γGlu-Palmitoyl])-NH2 [peptide of SEQ ID NO: 47]	2.56
Ac-LEGREKVRAK(Ac)I[Aib][Aib]EG[Nle]STWS[αMeK]RKK(Ac)[PEG12]K([γGlu-γGlu-γGlu-γGlu-Palmitoyl])-NH2 [peptide of SEQ ID NO: 43]	0.14
Ac-LEGREKVRAK(Ac)I[Aib][Aib]EG[Nle]STWS[Aib]RKK(Ac)[PEG2′][PEG2′][PEG2′][γGlu][γGlu]K([γGlu-Palmitoyl])-NH2 [peptide of SEQ ID NO: 117]	1.16
Ac-LEGREKVRAQI[Aib][Aib]EG[Nle]STWT[Aib]RKKK([PEG2″-PEG2″-PEG2″-γGlu-γGlu-γGlu-Stearoyl])-NH2 [peptide of SEQ ID NO: 76]	0.8
Ac-LEGREKVRAK(Ac)I[Aib][Aib]EGQSTFS[αMeK]RAK(Ac)K([PEG2′-PEG2′-PEG2′-PEG2′-γGlu-γGlu-γGlu-γGlu-Palmitoyl])-NH2 [peptide of SEQ ID NO: 191]	0.17
Ac-LEGREKVRAK(Ac)I[Aib][Aib]EG[Nle]STWS[Aib]RKK(Ac)[PEG4′][PEG4′]K([γGlu-γGlu-γGlu-Stearoyl])-NH2 [peptide of SEQ ID NO: 124]	0.29
Ac-LEGREKVRAK(Ac)I[Aib][Aib]EGQSTFS[αMeK]RAK(Ac)[PEG2′][PEG2′][PEG2′][PEG2′][γGlu][γGlu]K([γGlu-γGlu-Palmitoyl])-NH2 [peptide of SEQ ID NO: 185]	0.05

Give one value of EC50 (nM), OVCAR 5 cells (cAMP) per listed binder.
1. Ac-LEGREKVRAK(Ac)I[Aib][Aib]EG[Nle]ST[1Nal]S[Aib]RKK([PEG2″-PEG2″-PEG2″-γGlu-γGlu-γGlu-Stearoyl])-NH2 [peptide of SEQ ID NO: 79]
2. Ac-LEGREKVRAK(Ac)I[Aib][Aib]EGQSTFS[αMeK]RAK(Ac)[PEG2′][PEG2′][PEG2′][PEG2′]K([γGlu-γGlu-γGlu-γGlu-Myristoyl])-NH2 [peptide of SEQ ID NO: 190]

OUT:
[0.4, 1.29]
